Data provenance is ChEMBL document CHEMBL4266001.

assay: Selectivity index, ratio of cytotoxic concentration for human MRC5 cells to IC50 for chloroquine-resistant Plasmodium falciparum K1 infected in human erythrocytes
Consider the following molecules; for each one, report its selectivity ratio.
// no unit string in output, number only

Qu. Report selectivity ratio, nothing else, for this molecule: `CN(CCCNc1ccc2ccccc2n1)CCCNc1ccnc2cc(Cl)ccc12`
Ans. 61

Qu. Report selectivity ratio, nothing else, for this molecule: `CN(CCNc1ncccn1)CCNc1ccnc2cc(Cl)ccc12`
Ans. 40

Qu. Report selectivity ratio, nothing else, for this molecule: `CN(CCNc1ccc2ccccc2n1)CCNc1ccnc2cc(Cl)ccc12`
Ans. 36

Qu. Report selectivity ratio, nothing else, for this molecule: `CN(CCNc1ccccn1)CCNc1ccnc2cc(Cl)ccc12`
Ans. 430

Qu. Report selectivity ratio, nothing else, for this molecule: `CN(CCNc1nccc2ccccc12)CCNc1ccnc2cc(Cl)ccc12`
Ans. 36

Qu. Report selectivity ratio, nothing else, for this molecule: `CN(CCNc1ccc2ccccc2n1)CCNc1ccc2ccccc2n1`
Ans. 17

Qu. Report selectivity ratio, nothing else, for this molecule: `CN(CCCNc1ccnc2cc(Cl)ccc12)CCCNc1ccnc2cc(Cl)ccc12`
Ans. 66

###

assay: Inhibition of Plasmodium falciparum FCR-3 HDP expressed in Escherichia coli assessed as reduction in hemazoin formation; design: species or system Plasmodium falciparum FCR-3/Gambia
Consider the following compounds; for each one, report its IC50.
Please state the figure in µM; there is no need to write the unit.

Qu. Report IC50, nothing else, for this compound: `CN(CCCNc1ccc2ccccc2n1)CCCNc1ccnc2cc(Cl)ccc12`
Ans. 0.00092

Qu. Report IC50, nothing else, for this compound: CCN(CC)CCCC(C)Nc1ccnc2cc(Cl)ccc12 (stereo not drawn) [CHLOROQUINE]
Ans. 0.046

Qu. Report IC50, nothing else, for this compound: `CN(CCNC(=O)C=Cc1ccc2ccccc2c1)CCNc1ccnc2cc(Cl)ccc12`
Ans. 0.012

###

Consider the following compounds; for each one, report its selectivity ratio.
assay: Selectivity index, ratio of cytotoxic concentration for human MRC5 cells to IC50 for chloroquine-resistant Plasmodium falciparum K1 infected in human erythrocytes
// no unit string in output, number only

Qu. Report selectivity ratio, nothing else, for this compound: `CN(CCCNC(=O)C=Cc1ccc2ccccc2c1)CCCNc1ccnc2cc(Cl)ccc12`
Ans. 140

Qu. Report selectivity ratio, nothing else, for this compound: `CN(CCNC(=O)C=Cc1ccc2ccccc2n1)CCNc1ccnc2cc(Cl)ccc12`
Ans. 6

Qu. Report selectivity ratio, nothing else, for this compound: `CN(CCNc1nc2ccccc2[nH]1)CCNc1ccnc2cc(Cl)ccc12`
Ans. 8.5

Qu. Report selectivity ratio, nothing else, for this compound: `CN(CCNC(=O)C=Cc1ccc2ccccc2c1)CCNc1ccnc2cc(Cl)ccc12`
Ans. 1200

Qu. Report selectivity ratio, nothing else, for this compound: `CN(CCNc1nc2ccccc2[nH]1)CCNc1nc2ccccc2[nH]1`
Ans. 4.7
